# measurementProtocol: Single dose rhesus macaque PK, subcutaneous aqueous suspension, plasma EFdA by LC-MS/MS
# experimentalConditions: male, rhesus monkey, plasma, sc, 50 mg/kg
measuredEndpoint: half-life

Just so you know, measured half-life for "C#C[C@]1(CO)O[C@@H](n2cnc3c(N)nc(F)nc32)C[C@@H]1O" came out at 69 h

====

# measurementProtocol: Single dose rhesus macaque PK, subcutaneous aqueous suspension, plasma EFdA by LC-MS/MS
# experimentalConditions: male, rhesus monkey, plasma, sc, 50 mg/kg
measuredEndpoint: AUC(0-inf) (µM·h)
One number for each entry, in µM·h.

Just so you know, measured AUC(0-inf) for "C#C[C@]1(CO)O[C@@H](n2cnc3c(N)nc(F)nc32)C[C@@H]1O" came out at 135
